assayedSystem: human ALK5 (Homo sapiens, UniProt P36897)
Sequence (P36897 162-503): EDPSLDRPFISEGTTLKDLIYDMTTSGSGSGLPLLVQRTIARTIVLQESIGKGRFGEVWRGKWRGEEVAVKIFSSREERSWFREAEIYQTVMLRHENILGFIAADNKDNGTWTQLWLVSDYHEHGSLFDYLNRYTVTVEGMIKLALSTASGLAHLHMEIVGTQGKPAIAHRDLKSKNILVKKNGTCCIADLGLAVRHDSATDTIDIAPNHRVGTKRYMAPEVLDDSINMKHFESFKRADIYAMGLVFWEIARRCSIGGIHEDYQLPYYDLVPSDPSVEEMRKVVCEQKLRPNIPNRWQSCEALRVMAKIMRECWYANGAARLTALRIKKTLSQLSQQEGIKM
assayComment: ALK5 Enzyme Assay 1
Assay type: biochemical
Design: 6His tagged ALK5 protein (amino acids 162-503) expressed in insect cells; 6His; made in house; host or cells: insect cells
conditionContext: read-out: EAA: activity (μM) using Enzyme Assay 1
// boundary case: IC50 equal to 0.02 µM maps to 0.0; strictly smaller maps to 1.0

Is it true that IC50 reported for COc1cc(Nc2cc(Oc3ccc(C)nc3-c3cccc(C)c3)ccn2)cc(OC)c1OC is less than 0.02 µM?
1.0

Another compound to look at: Cc1cc(Oc2ccnc(Nc3ccc(C#N)cc3)c2)c(-c2ccccn2)nc1C
0.0

Same again, this time with Cc1ccc(Oc2ccnc(Nc3ccc(S(N)(=O)=O)cc3)c2)c(-c2ccccn2)n1
1.0

How about Cc1cc(Oc2ccnc(Nc3ccccc3)c2)c(-c2ccccn2)nc1C ?
1.0

Param item: COc1cc(Nc2cc(Oc3cccnc3C)ccn2)cc(OC)c1OC
0.0

Further, for CC(=O)Nc1cc(Nc2cc(Oc3cc(C)c(C)nc3-c3ccccn3)ccn2)ccc1C ?
1.0

Field entry: Cc1cc(Oc2ccnc(Nc3cc(F)ccc3F)c2)c(-c2ccccn2)nc1C
0.0

====

Please go through the items and note down their IC50.
assayedSystem: UniProt:P36897
Sequence (P36897 162-503): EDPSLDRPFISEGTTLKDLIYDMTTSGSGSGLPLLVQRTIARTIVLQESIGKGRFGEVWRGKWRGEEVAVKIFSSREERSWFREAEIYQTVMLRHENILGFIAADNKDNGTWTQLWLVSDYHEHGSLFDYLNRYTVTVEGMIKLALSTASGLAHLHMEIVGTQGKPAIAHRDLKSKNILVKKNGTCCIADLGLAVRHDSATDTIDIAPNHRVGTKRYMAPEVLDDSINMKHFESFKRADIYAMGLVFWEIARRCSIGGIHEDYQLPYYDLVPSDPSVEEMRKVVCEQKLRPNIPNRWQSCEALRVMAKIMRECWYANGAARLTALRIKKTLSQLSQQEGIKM
assayComment: ALK5 Enzyme Assay 1
Type: biochemical
Parameters: 6His tagged ALK5 protein (amino acids 162-503) expressed in insect cells; 6His; made in house; host or cells: insect cells
conditionContext: EAA: activity (μM) using Enzyme Assay 1
Express the result in µM but write the number alone.

For the compound COc1ccccc1Nc1cc(Oc2cc(C)c(C)nc2-c2ccccn2)ccn1 , what IC50 is on record?
0.0128

Cool, now COc1cc(Nc2cc(Oc3ccc(C)nc3C)ccn2)cc(OC)c1OC
0.0206

====

assayedSystem: human ALK5 (Homo sapiens, UniProt P36897)
Sequence (P36897 162-503): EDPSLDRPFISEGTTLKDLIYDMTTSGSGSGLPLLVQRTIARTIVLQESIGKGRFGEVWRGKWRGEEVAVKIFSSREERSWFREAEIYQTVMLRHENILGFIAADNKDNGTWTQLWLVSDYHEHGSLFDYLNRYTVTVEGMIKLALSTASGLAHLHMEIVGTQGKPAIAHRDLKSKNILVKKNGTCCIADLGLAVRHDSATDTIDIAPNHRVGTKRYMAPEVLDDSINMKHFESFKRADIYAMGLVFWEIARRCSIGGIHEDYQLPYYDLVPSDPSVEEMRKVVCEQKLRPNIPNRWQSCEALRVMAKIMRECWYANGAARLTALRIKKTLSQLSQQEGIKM
assayComment: ALK5 Enzyme Assay 2 (fluorescence polarisation probe displacement)
Format: binding
Set-up: 6His tagged human ALK5 (residues162-503) was grown and purified from insect cells; 6His; made in house; host or cells: insect cells
conditionContext: read-out: EAA2: activity (μM) using Enzyme Assay 2
measurementKind: IC50 (µM)
Respond with the bare value in µM.

Suppose we examine the molecule Cc1cc(Oc2ccnc(Nc3ccc(C(=O)N(C)C)cc3)c2)c(-c2ccccn2)nc1C [Example 27] ; what IC50 value has been reported?
0.0124

Param item: Cc1ccc(Oc2ccnc(Nc3cccc(CN4CCN(C(=O)Nc5ccc(F)c(Cl)c5)CC4)c3)c2)c(C)n1 [Example 180]
0.0896

Same question for Cc1cc(Oc2ccnc(Nc3ccc(OCCNC(=O)OC(C)(C)C)cc3)c2)c(-c2ccccn2)nc1C [Example 195] please.
0.0121

And Cc1ccc(Oc2ccnc(Nc3ccc(CC#N)cc3)c2)c(-c2ccc(F)cc2)n1 [Example 155] ?
0.0816

Same question, COc1cc(Nc2cc(Oc3ccc(C)nc3-c3cscc3C)ccn2)cc(OC)c1OC [Example 46] this time
0.0175

Next entry: COc1cc(Nc2cc(Oc3cccnc3-c3cccc(C)n3)ccn2)cc(OC)c1OC [Example 1]
0.089

Now try COc1cc(Nc2cc(Oc3ccc(C)nc3N3CCCC3)ccn2)cc(OC)c1OC [Example 164] .
0.0275

Also, Cc1ccc(Oc2ccnc(Nc3ccc(C(=O)NCCn4cccn4)cc3)c2)c(C)n1 [Example 140] please.
0.0208

Follow-up entry: Cc1ccc(Oc2ccnc(Nc3cccc(C(=O)N(C4CCOCC4)C4CC4)c3)c2)c(C)n1 [Example 60]
0.022

Follow-up entry: CC(=O)NS(=O)(=O)c1ccc(Nc2cc(Oc3ccc(C)nc3C)ccn2)cc1 [Example 107]
0.592

// next record Cc1cc(Oc2ccnc(Nc3cccc(NS(C)(=O)=O)c3)c2)c(-c2ccccn2)nc1C [Example 76]
0.0148

Also check CC(=O)Nc1ccc(Nc2cc(Oc3ccc(C)nc3C)ccn2)cc1 [Example 123]
0.0324

Repeat with Cc1ccc(Oc2ccnc(Nc3cccc(C(=O)N(C)C)c3)c2)c(C)n1 [Example 62]
0.0535

Try Cc1cc(Oc2ccnc(Nc3cccc(CN4CCN(C)CC4)c3)c2)c(-c2ccccn2)nc1C [Example 78] next.
0.0384

Param item: Cc1ccc(Oc2ccnc(Nc3ccc(OCC(O)CNC(C)C)cc3)c2)c(C)n1 (centres unmarked) [Example 129]
0.103

Please answer likewise for Cc1ccc(Oc2ccnc(Nc3cccc(CN4CCN(C(=O)CC(N)=O)CC4)c3)c2)c(C)n1 [Example 187]
0.0232

Field entry: COCCNS(=O)(=O)c1ccc(Nc2cc(Oc3ccc(C)nc3C)ccn2)cc1 [Example 110]
0.203

====

assayedSystem: human ALK5 (Homo sapiens, UniProt P36897)
assayComment: ALK5 Enzyme Assay 2 (fluorescence polarisation probe displacement)
Format: binding
Set-up: 6His tagged human ALK5 (residues162-503) was grown and purified from insect cells; 6His; made in house; host or cells: insect cells
conditionContext: read-out: EAA2: activity (μM) using Enzyme Assay 2
measurementKind: IC50 (µM)
Respond with the bare value in µM.

GET /values?readout=IC50&item= Cc1ccc(Oc2ccnc(Nc3ccccc3)c2)c(C(=O)NCc2ccc[nH]2)n1
0.119

Also Cc1cc(Oc2ccnc(Nc3ccc(OCC(O)CNC(C)C)cc3)c2)c(-c2ccccn2)nc1C (centres unmarked) ?
0.0136

Now the molecule Cc1ccc(Oc2ccnc(Nc3ccc(C(N)=O)cc3)c2)c(-c2ccccn2)n1
0.0152

Can you handle Cc1ccc(Oc2ccnc(Nc3ccc(CC#N)cc3)c2)c(C)n1 next?
0.0286

Proceed to CCCCCNS(=O)(=O)c1ccc(Nc2cc(Oc3ccc(C)nc3C)ccn2)cc1
3.01

====

assayedSystem: human ALK5 (Homo sapiens)
assayComment: ALK5 Enzyme Assay 1
Assay type: biochemical
Design: 6His tagged ALK5 protein (amino acids 162-503) expressed in insect cells; 6His; made in house; host or cells: insect cells
conditionContext: read-out: EAA: activity (μM) using Enzyme Assay 1
Please go through the items and note down their IC50.
Report as a plain number; the unit µM is understood.

Query for human ALK5 (Homo sapiens): what IC50 does the record show for Cc1cc(Oc2ccnc(Nc3ccc(S(C)(=O)=O)cc3)c2)c(-c2ccccn2)nc1C ?
0.00853

Then what about the compound Cc1cc(Oc2ccnc(Nc3ccncc3)c2)c(-c2ccccn2)nc1C ?
0.0632

Query Cc1cc(Oc2ccnc(Nc3ccc(Cl)cc3)c2)c(-c2ccccn2)nc1C next
1.67

====

Give IC50 for every item shown.
assayedSystem: human ALK5 (Homo sapiens)
assayComment: ALK5 Enzyme Assay 2 (fluorescence polarisation probe displacement)
Type: binding
Design: 6His tagged human ALK5 (residues162-503) was grown and purified from insect cells; 6His; made in house; host or cells: insect cells
conditionContext: read-out: EAA2: activity (μM) using Enzyme Assay 2
Please give a number only; it is taken to be in µM.

Field request: IC50 | item: COc1cc(Nc2cc(Oc3ccc(C)nc3-c3cncnc3)ccn2)cc(OC)c1OC
0.0966

What do you have for Cc1ccc(Oc2ccnc(Nc3ccc(C(=O)NCCNS(=O)(=O)N(C)C)cc3)c2)c(C)n1 ?
0.0506

Same again, this time with Cc1cc(Oc2ccnc(Nc3ccc4[nH]ccc4c3)c2)c(-c2ccccn2)nc1C
0.463

Now this one: Cc1ccc(Oc2ccnc(Nc3cccc(CN4CCN(C(C)C(N)=O)CC4)c3)c2)c(C)n1 (stereo not drawn)
0.0322

What do we get for Cc1ccc(Oc2ccnc(Nc3cccc(O)c3)c2)c(C)n1 ?
0.0377

Try the molecule Cc1cc(Oc2ccnc(Nc3ccncc3)c2)c(-c2ccccn2)nc1C
0.0515
